Entry source: patent US9115086B2

Consider the following compounds; for each one, report its pEC50.
Target: PKM2 (Homo sapiens, UniProt P14618)
Construct: PKM2 stock enzyme solution was diluted in Reaction Buffer
Sequence (P14618 whole entry): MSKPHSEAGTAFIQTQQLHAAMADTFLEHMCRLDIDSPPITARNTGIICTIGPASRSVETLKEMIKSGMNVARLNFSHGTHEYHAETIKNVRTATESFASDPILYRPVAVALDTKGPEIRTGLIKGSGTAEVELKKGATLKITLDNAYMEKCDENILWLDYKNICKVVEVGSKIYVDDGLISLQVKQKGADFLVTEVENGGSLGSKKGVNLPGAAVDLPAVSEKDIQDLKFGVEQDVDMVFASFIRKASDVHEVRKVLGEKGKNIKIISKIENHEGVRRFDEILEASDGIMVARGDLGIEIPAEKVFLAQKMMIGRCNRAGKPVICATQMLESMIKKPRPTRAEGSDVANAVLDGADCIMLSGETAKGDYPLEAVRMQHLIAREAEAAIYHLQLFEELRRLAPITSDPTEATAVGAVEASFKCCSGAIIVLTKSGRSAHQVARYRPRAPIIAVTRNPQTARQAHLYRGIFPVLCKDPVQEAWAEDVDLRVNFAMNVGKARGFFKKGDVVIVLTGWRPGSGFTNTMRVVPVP
Experiment: PKM2 Assay (activation, LDH-coupled NADH absorbance at 340 nm)
Settings: activation of PKM2
pEC50: −log10 of the molar value.

As a guide, the following entries are already answered.
{"columns": ["compound", "pEC50"],
 "data": [
  ["O=C(C1CC1c1ccc(C(F)(F)F)cc1)N1CCN(S(=O)(=O)c2ccc3ccccc3c2)CC1 (stereo not shown)", "> 5.00"],
  ["COC(=O)c1ccc(OCC(=O)N2CCN(S(=O)(=O)c3ccc4ccccc4c3)CC2)cc1", "> 5.00"],
  ["COc1ccc(OCC(=O)N2CCN(S(=O)(=O)c3ccc4ccccc4c3)CC2)cc1", "> 5.00"],
  ["O=C(OCc1cccnc1)N1CCN(S(=O)(=O)c2ccc3ccccc3c2)CC1", "> 5.00"],
  ["O=C(CCc1ccc(C(F)(F)F)cc1)N1CCN(S(=O)(=O)c2ccc3ccccc3c2)CC1", "> 5.00"],
  ["O=C(COc1ccc(-n2cnnn2)cc1)N1CCN(S(=O)(=O)c2cccc3cccnc23)CC1", "4.00 to 5.00"],
  ["O=C(CSc1ccc(F)cc1)N1CCN(S(=O)(=O)c2ccc3ccccc3c2)CC1", "> 5.00"],
  ["O=C(Cc1ccc(C(F)(F)F)cc1)N1CCN(S(=O)(=O)c2cccc3ccccc23)CC1", "> 5.00"],
  ["Cc1ccc(OCC(=O)N2CCN(S(=O)(=O)c3ccc4ccccc4c3)CC2)cc1", "> 5.00"],
  ["O=C(CC1CC1)N1CCN(S(=O)(=O)c2ccc3ccccc3c2)CC1", "> 5.00"]
]}

# batch: return pEC50 for each of the 5 compounds below
1. O=C(Cc1ccc(C(F)(F)F)cc1)N1CCN(S(=O)(=O)c2cc(C(F)(F)F)cc(C(F)(F)F)c2)CC1
2. O=C(COc1ccc(-n2cnnn2)cc1)N1CCN(S(=O)(=O)c2cccc3ccccc23)CC1
3. O=C(OCc1ccccc1)N1CCN(S(=O)(=O)c2ccccc2)CC1
4. O=C(C1CC1c1ccc(C(F)(F)F)cc1)N1CCN(S(=O)(=O)c2cc(C3CC3)cc(C(F)(F)F)c2)CC1 (stereo not shown)
5. Cc1ccc(SCC(=O)N2CCN(S(=O)(=O)c3ccc4ccccc4c3)CC2)cc1

a:
< 4.00
> 5.00
> 5.00
> 5.00
> 5.00

Quick one: give me pEC50 for each item below, same order please.
1. O=C(C1CCCCC1)N1CCN(S(=O)(=O)c2ccc3ccccc3c2)CC1
2. O=C(Cc1ccc(C(F)(F)F)cc1)N1CCN(S(=O)(=O)c2cc(Cl)cc(Cl)c2)CC1

a:
["> 5.00", "4.00 to 5.00"]

Working through the 2 compounds below one at a time, give pEC50 for each.
1. CC(C)(C)OCC(=O)N1CCN(S(=O)(=O)c2ccc3sc(=O)sc3c2)CC1
2. O=C(C1CC1c1ccc(C(F)(F)F)cc1)N1CCN(S(=O)(=O)c2ccc3c(c2)OCCO3)CC1 (stereo not shown)

a:
1. 4.00 to 5.00
2. > 5.00
